Entries and their growth values follow.
Test system: HCC-2998 colon
test name: NCI-60 one-dose screen, 48 h (100 = growth as untreated, 0 = no growth, -100 = all killed)
condition description: 10 µM unless noted
Method: Growth inhibition of the HCC-2998 human tumor cell line is measured as a screen for anti-cancer activity. Cells are grown in 96 well plates and exposed to the test compound for 48 hours. Compounds are tested at a single concentration, which is 10^-5 M for most compounds. The reported endpoint is percent growth (GI% or GIPRCNT), where numbers from 0 - 100% represent growth inhibition, and numbers from -100% - 0 represent cell death. For example, a value of 40 represents 60% growth inhibition. […]
Compounds without any hit were thinned out: in the full panel of roughly 83,000, 20% have a hit.
A number alone suffices; assume %.

Completed entries (count: 3):
Qu. What is its growth for HCC-2998 colon? Entry: "Cc1c(NC(=O)CSc2nc3sc4c(c3c(=O)n2-c2ccc(Cl)cc2)CCCC4)c(=O)n(-c2ccccc2)n1C"
Ans. 110

Qu. Then "COc1ccc(NC(=O)c2sc3nc(-c4cnccn4)cc(-c4cccs4)c3c2N)cc1" ?
Ans. 67.5

Qu. Then "CCOC(=O)c1c(Nc2ccccc2)nn2c(N)c(C#N)c(-c3ccc(F)cc3)nc12" ?
Ans. 110

Others:
Qu. What is its growth for HCC-2998 colon? Entry: "c1ccc2c(NCCCn3ccnc3)c3oc4ccccc4c3nc2c1"
Ans. 0.465

Qu. Then "NS(=O)(=O)c1ccc(Nc2nc(Nc3ccccc3)nc(-n3nc(-c4ccccc4)cc3-c3ccccc3)n2)cc1" ?
Ans. 43.1
